Tested on: HEK293T (UBE3A T485A transfected, BAR Wnt reporter)
measurement_protocol: Wnt reporter firefly/Renilla luciferase ratio relative to plate median (fold (linear ratio)); higher = more Wnt/beta-catenin reporter activation
protocol_conditions: concentration: 0.01 uM; 24 h
Over roughly 1,100 compounds, “Wnt reporter firefly/Renilla luciferase ratio relative to plate median” has its median near 1.1; the highest 2% begin near 1.6. For the sample, the highest values were picked, then their nearest neighbours and some compounds at random.
Property: Wnt reporter firefly/Renilla luciferase ratio; scope: individual molecules

- cpd_smiles: "CC(C)N(C(=O)COc1nnc(C(F)(F)F)s1)c1ccc(F)cc1"
  result: 0.973
- cpd_smiles: "CNC(=O)/C=C(\\C)OP(=O)(OC)OC"
  result: 0.971

Prompt line: Data request, read-out Wnt reporter firefly/Renilla luciferase ratio, for CNC(=O)Oc1cccc2ccccc12
Response line: 0.987
